Hey, just so you know, these numbers are from PubChem BioAssay (NCI).

# Test system: RPMI-8226 leukemia
# Protocol Description: NCI tumour cell line growth inhibition, 48 h
Parameter Measured: TGI (µM)
# value in µM; strip the unit string

                                   compound  measured_number
0  C=[CH][Sn]([CH]=C)([O]c1cccc2cccnc12)[O]c1cccc2cccnc12             4.71

Qu. Output TGI of O=C(/C=C/c1cccs1)c1ccccc1Cl
Ans. 61.9

Qu. Output TGI of CCOP(=O)(Nc1ccc2oc(=O)c3ccccc3c2c1)OCC
Ans. 98.2

Qu. Output TGI of COc1cccc(/C=C/C(=O)c2cc3c(N)c(C(=O)Nc4cccc5ccccc45)sc3nc2C)c1
Ans. 2.73

Qu. Output TGI of Cc1cc(Cl)ccc1NS(=O)(=O)c1ccc(-c2cnc(C3CC3)o2)cc1
Ans. 23.1

Qu. Output TGI of COc1ccc(-c2cc(C(O)C3CCCCN3)c3ccccc3n2)cc1 (stereo not drawn)
Ans. 5.82

----------
# Tested on: KM12 colon
# Protocol Description: NCI tumour cell line growth inhibition, 48 h
Parameter Measured: TGI

>>> print(df.to_string())
                                   compound    result
0  C/C=C1\C(=O)OC2CCN3CCC(COC(=O)C(C)(O)C(C)C1O)C23 (stereo unspecified)  > 100 µM
1     Cc1ccc(S(=O)(=O)n2cc(C#N)c(C#N)c2)cc1  > 100 µM
2  O=C(Cc1ccccc1)NN1C(=O)/C(=C\c2ccc(O)cc2)SC1=Nc1ccccc1  > 100 µM
3  N#CC1C=Cc2ccccc2N1C(=O)Oc1ccccc1 (stereo unspecified)  > 100 µM

Qu. Output TGI of CCOc1cc(-c2ccc[nH]2)[nH]c1/C=C1\N=C(C)C(C(=O)OC)=C1C
Ans. 1.35 µM

Qu. Output TGI of CC1CC2(C)CC(=O)C1C1C(=O)N(CCN3CCCCC3)C(=O)C12 (stereo unspecified)
Ans. > 100 µM

----------
# System: ACHN renal
Write down one outcome, taken from 1 for active, 0 for inactive

See these solved cases before continuing.
>>> print(df.to_string())
                                   molecule  group
0  Cc1cc(C(O)CN(C)C)cc2c1ccc1cc(C(C)C)ccc12 (centres undefined)      0
1  CCOc1cc(-c2ccc[nH]2)[nH]c1/C=C1\N=C(C)C(C(=O)OC)=C1C      1
2  O=C(Nc1ccccc1C(=O)N/N=C(\c1ccccc1)c1ccccn1)c1ccc(F)cc1      1

Qu. Entry CC1(C)CC[C@]2(C(N)=O)CC[C@]3(C)C(=CC[C@@H]4[C@@]5(C)C/C(=C/c6ccncc6)C(=O)C(C)(C)[C@@H]5CC[C@]43C)[C@@H]2C1 : call = ?
Ans. 0

----------
Readings of TGI for the listed compounds
# Test system: UACC-62 melanoma
# Protocol Description: NCI tumour cell line growth inhibition, 48 h
# value in µM; strip the unit string

Take a look at these entries with their results.
In [3]: df
Out[3]:
                        structure_as_smiles  parameter_measured  measured_number
0                  CN(C=O)/C=C/c1cc(O)ccc1O                 TGI             46.9
1        OCNCCNc1nc2ccccc2c2[nH]c3ccccc3c12                 TGI              7.5
2  O=C(NCCCCCCCNC(=O)OCc1ccc2c(Cl)cc(Cl)c(O)c2n1)OCc1ccc2c(Cl)cc(Cl)c(O)c2n1                 TGI             2.13
3  Nc1ccc2c(c1)c(N)nn2C(=O)Nc1ccc(Cc2ccccc2)cc1                 TGI             12.6
4  COc1cccc(/C=C/C(=O)c2cc3c(N)c(C(=O)Nc4cccc5ccccc45)sc3nc2C)c1                 TGI             4.74

Qu. Output TGI of COc1cc(NC(=O)Nc2cnc(Nc3ccc(N4CCOCC4)cc3)nc2Oc2cccc(OC)c2)cc(OC)c1
Ans. 4.04

Qu. Output TGI of Cc1ccc(S(=O)(=O)n2cc(C#N)c(C#N)c2)cc1
Ans. 33.7

----------
Assay system SF-295 CNS; read-out recorded as GI50.

Qu. Output GI50 of CC1COCC(C)N1C1=C(Cl)C(=O)c2ccccc2C1=O (stereo unspecified)
Ans. 2940 nM

Qu. Output GI50 of O=c1cc(-c2ccccn2)[nH]c2ccc(Cl)cc12
Ans. 51500 nM

Qu. Output GI50 of COc1ccccc1CNCCCCCCCCCCCCN1C(=O)c2ccc3c4c(ccc(c24)C1=O)C(=O)N(CCCCCCCCCCCCNCc1ccccc1OC)C3=O
Ans. 2240 nM

Qu. Output GI50 of CC1CC2(C)CC(=O)C1C1C(=O)N(CCN3CCCCC3)C(=O)C12 (stereo unspecified)
Ans. > 100000 nM

Qu. Output GI50 of O=C(Nc1cccc(-n2cc(-c3ccncc3)c(-c3ccc(O)c(Cl)c3)n2)c1)c1cccc(C(F)(F)F)c1
Ans. 2980 nM

Qu. Output GI50 of CC(=O)Oc1ccc(/C=N/NC(N)=S)nc1
Ans. 6420 nM

Qu. Output GI50 of CC1(C)CC[C@]2(C(N)=O)CC[C@]3(C)C(=CC[C@@H]4[C@@]5(C)C/C(=C/c6ccncc6)C(=O)C(C)(C)[C@@H]5CC[C@]43C)[C@@H]2C1
Ans. 1670 nM

Qu. Output GI50 of O=C(Cc1csc2nc(-c3ccc(Br)cc3)cn12)N/N=C/c1ccc(O)cc1
Ans. 12000 nM

Qu. Output GI50 of O=c1[nH]c2ccccc2n1-c1n[nH]c2ccccc12
Ans. 25400 nM

Qu. Output GI50 of COc1cc(NC(=O)Nc2cnc(Nc3ccc(N4CCOCC4)cc3)nc2Oc2cccc(OC)c2)cc(OC)c1
Ans. 1190 nM

Qu. Output GI50 of O=c1c2ccccc2oc2ccc(OCCCCCCN3CCCCCC3)cc12
Ans. 2160 nM

----------
# Tested on: HL-60(TB) leukemia
# Protocol Description: NCI tumour cell line growth inhibition, 48 h
Parameter Measured: TGI

Take a look at these entries with their results.
In [3]: df
Out[3]:
                                   compound  parameter_measured    result
0  COC(=O)[C@@H]1CN(C(=O)c2ccccc2)C(=O)N1C(=O)OCc1ccccc1                 TGI  > 100 µM
1  CC(=O)/C(=C\c1ccc(Cl)c(Cl)c1)C(=O)C(C)CN(C)C (stereo not given)                 TGI   5.36 µM
2  COc1ccc(CCN2CCc3c(C)c(C#N)c4nc5ccccc5n4c32)cc1OC                 TGI  > 100 µM
3  O=C(NCCCCCCCNC(=O)OCc1ccc2c(Cl)cc(Cl)c(O)c2n1)OCc1ccc2c(Cl)cc(Cl)c(O)c2n1                 TGI   1.97 µM
4                      CC(=O)CC(=O)CCC(=O)O                 TGI  > 100 µM

Next, consider the following compound.
Qu. Output TGI of CCCNc1ncnc2[nH]ncc12
Ans. > 100 µM

----------
Readings of TGI for the listed molecules
# Tested on: SK-OV-3 ovarian
# Protocol Description: NCI tumour cell line growth inhibition, 48 h

Take a look at these entries with their results.
>>> print(df.to_string())
                                   molecule           system    result
0    NC1=NCC(CN2CCCC2)O1 (stereo not given)  SK-OV-3 ovarian  > 100 µM
1  Cc1cc(C(O)CN(C)C)cc2c1ccc1cc(C(C)C)ccc12 (stereo not given)  SK-OV-3 ovarian     20 µM
2  O=C(CC1Sc2ccccc2NC1=O)Nc1ccc(Cl)cc1 (stereo not given)  SK-OV-3 ovarian  > 100 µM

Qu. Output TGI of Nc1[nH]c(=O)ncc1CO
Ans. > 100 µM

Qu. Output TGI of CCSC(SCC)=C1C(=O)N(c2ccccc2)N=C1C
Ans. 33.4 µM

Qu. Output TGI of Oc1[nH]c2cc(Cl)ccc2c1/C=c1/ccc2c(c1)N=C(c1cc(F)cc(F)c1)N=2
Ans. 7.95 µM

Qu. Output TGI of COc1ccccc1CNCCCCCCCCCCCCN1C(=O)c2ccc3c4c(ccc(c24)C1=O)C(=O)N(CCCCCCCCCCCCNCc1ccccc1OC)C3=O
Ans. > 50 µM

Qu. Output TGI of COc1cc2cc3c4c(cc(OC)c(OC)c4c2cc1OC)CCN3C(=O)CCC(=O)NCCCN(C)C
Ans. > 100 µM

Qu. Output TGI of NS(=O)(=O)c1ccc(NNc2c3ccccc3nc3c(C(=O)Nc4ccc(S(=O)(=O)Nc5ncccn5)cc4)cccc23)cc1
Ans. > 25 µM

Qu. Output TGI of O=c1cc(NCc2ccncc2)[nH]c(=O)[nH]1
Ans. > 100 µM
